# assayed_target: ProLink tagged human CXCR4 (C2C12 CXCR4 β-Arrestin cell line) (human, UniProt P61073 1-352)
# Sequence (P61073 whole entry): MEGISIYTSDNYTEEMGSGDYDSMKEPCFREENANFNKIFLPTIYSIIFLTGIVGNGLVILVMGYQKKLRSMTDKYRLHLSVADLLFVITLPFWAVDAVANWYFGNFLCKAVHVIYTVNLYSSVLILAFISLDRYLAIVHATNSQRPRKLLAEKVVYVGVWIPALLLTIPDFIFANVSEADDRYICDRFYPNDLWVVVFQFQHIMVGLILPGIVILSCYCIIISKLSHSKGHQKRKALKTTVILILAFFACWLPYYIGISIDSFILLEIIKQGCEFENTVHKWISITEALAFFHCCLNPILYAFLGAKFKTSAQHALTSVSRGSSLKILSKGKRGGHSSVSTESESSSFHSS
# assay_details: cell-based or functional assay
Square brackets hold non-standard residues; d marks the D form. Ends that are not written are not given here.
measurement_type: IC50 for Inhibition of CXCR4 Activation (β-Arrestin recruitment) (nM)
# number only, unit nM dropped from output

Take a look at these entries with their results.
LERYHQS[dA]RSSLRPYTK [SEQ ID NO: 52] ... 121
LERYQHS[dA]RSSLRPYTK [SEQ ID NO: 49] ... 66
LERYHHS[dA]RTSLRPYTK [SEQ ID NO: 76] ... 6

Please find the next binder below.
So what's the measured IC50 for Inhibition of CXCR4 Activation (β-Arrestin recruitment) for this one? LERYHNS[dA]RSSLRPYTK [SEQ ID NO: 46] 187
